# Test System: UniProt:Q2NNR5
# Sequence (Q2NNR5 whole entry): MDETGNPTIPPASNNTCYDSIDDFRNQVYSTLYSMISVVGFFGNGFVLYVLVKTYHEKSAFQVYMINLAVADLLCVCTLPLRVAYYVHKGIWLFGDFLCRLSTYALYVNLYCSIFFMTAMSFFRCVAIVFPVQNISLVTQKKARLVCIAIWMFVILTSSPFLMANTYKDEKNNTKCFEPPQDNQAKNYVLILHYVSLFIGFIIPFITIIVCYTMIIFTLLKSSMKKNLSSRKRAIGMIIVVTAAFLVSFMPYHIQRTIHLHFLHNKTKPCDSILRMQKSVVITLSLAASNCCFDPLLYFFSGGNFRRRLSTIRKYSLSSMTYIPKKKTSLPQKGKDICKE
# Assay Overview: Inhibition constant for displacement of [3H]LTD4 on guinea pig lung parenchymal membranes.
# Assay type: tissue-based, Lung parenchyma
Metric: Ki (nM)
Numbers only, in nM.

Look over these answered cases.
[[record]]
compound = "CCCn1cc(Cc2ccc(C(=O)O)cc2OC)c2cc(NC(=O)OC3CCCC3)ccc21"
metric = "Ki"
output_unit = "nM"
endpoint_value = 58

[[record]]
compound = "COc1cc(C(=O)O)ccc1Cc1cn(C)c2ccc(NC(=O)NC3CCCC3)cc12"
metric = "Ki"
output_unit = "nM"
endpoint_value = 1120

[[record]]
compound = "COc1cc(C(=O)O)ccc1Cc1cn(C)c2ccc(NC(=O)CC3CCCC3)cc12"
metric = "Ki"
output_unit = "nM"
endpoint_value = 80

[[record]]
compound = "COc1cc(C(=O)O)ccc1Cc1cn(C)c2ccc(NC(=O)OC3CCCC3)cc12"
metric = "Ki"
output_unit = "nM"
endpoint_value = 157

[[record]]
compound = "CCCC(CC)C(=O)Nc1ccc2c(c1)c(Cc1ccc(C(=O)O)cc1OC)cn2C (stereo not drawn)"
metric = "Ki"
output_unit = "nM"
endpoint_value = 1830


Please report Ki for every entry that follows.
1. COc1cc(C(=O)O)ccc1Cc1c[nH]c2ccc(NC(=O)OC3CCCC3)cc12
2. COCCn1cc(Cc2ccc(C(=O)O)cc2OC)c2cc(NC(=O)OC3CCCC3)ccc21
3. CCCCCC(=O)Nc1ccc2c(c1)c(Cc1ccc(C(=O)O)cc1OC)cn2C

236
41
1900

----------
# Test System: Cysteinyl leukotriene receptor 1 (Cavia porcellus)
# Assay Overview: Inhibition constant for displacement of [3H]LTD4 on guinea pig lung parenchymal membranes.
Metric: Ki

Look over these answered cases.
[[record]]
structure_notation = "COc1cc(C(=O)NS(=O)(=O)c2ccccc2Br)ccc1Cc1nn(C)c2ccc(NC(=O)OC3CCCC3)cc12"
endpoint_value = "300 pM"

[[record]]
structure_notation = "COc1cc(C(=O)NS(=O)(=O)C(C)C)ccc1Cc1cn(Cc2cccc(C#N)c2)c2ccc(NC(=O)CC3CCCC3)cc12"
endpoint_value = "6800 pM"

[[record]]
structure_notation = "COc1cc(C(=O)NS(=O)(=O)c2ccccc2Cl)ccc1Cc1nn(C)c2ccc(NC(=O)OC3CCCC3)cc12"
endpoint_value = "300 pM"


Please report Ki for every entry that follows.
1. COc1cc(C(=O)NS(=O)(=O)c2ccccc2Cl)ccc1Cc1cn(C)c2ccc(NC(=O)CC3CCCC3)cc12
2. COc1cc(C(=O)NS(=O)(=O)c2ccccc2Cl)ccc1Cc1nn(C)c2ccc(NC(=O)CC3CCCC3)cc12

300 pM
300 pM

----------
# Test System: Cysteinyl leukotriene receptor 1 (Cavia porcellus)
# Assay Overview: Displacement of [3H]LTD4 on guinea pig lung parenchymal membranes
# Type: tissue-based, Lung parenchyma
What Ki was measured for each of the following?
Numbers only, in nM.

[[record]]
structure_notation = "COc1cc(C(=O)O)ccc1Cn1ncc2ccc(NC(=O)OC3CCCC3)cc21"
metric = "Ki"
endpoint_value = 80

[[record]]
structure_notation = "COc1cc(C(=O)O)ccc1Cn1ccc2ccc(NC(=O)OC3CCCC3)cc21"
metric = "Ki"
endpoint_value = 160


Pending compound:
Please look at this compound and report its Ki: COc1cc(C(=O)O)ccc1Cc1nn(C)c2ccc(NC(=O)OC3CCCC3)cc12
160
